For each of the binders below, state its Kd.
target: RSV prefusion F (preF), subtype A (respiratory syncytial virus, subtype A, UniProt P03420 26-513); experiment: BLI, IgG
The reply should be a number in nM, with the unit left off.

Query :: What measured Kd goes with ADI-20988 (antibody, V domains shown, also called Ab 240) VH: EVQLVESGGEVKKPGASVKVSCKTSGYPFSNYGISWMRLAPGQGLEWMGWISSYNGNTYYTKKFQGRVSMTTDTSTSTAYMELRSLRSDDTAVYYCARDVPVIAAHTFEYWGQGTLVTVSS VL: ETTLTQSPLSLPVTLGQPASISCRSSESLVYSDGNTYLSWFQQRPGQSPRRIIYKVSNRDSGVPDRFSGSGSGTDFTLKISRVEAEDVGVYYCMQATHWPRDTFGQGTKVDIK ?
Result :: 0.294

Query :: Then this binder: ADI-14422 (antibody, V domains shown, also called Ab 88) VH: QVQLVQSGAEVKKPGSSVKVSCKASGGTFSSYTINWVRQAPGQGLEWMGRIIPILGIANYAQKFQGRVTITADKSTSTAYMELSSLRSEDTAVYYCARRHQDTYGMDVWGQGTTVTVSS VL: QSVLTQPPSVSGAPGQRVTISCTGSSSNIGAGYDVHWYQQLPGTAPKLLIYGNSNRPSGVPDRFSGSKSGTSASLAITGLQAEDEADYYCQSYDSSLSGSVFGGGTKVTVL
Result :: 11.4

Query :: Then this binder: ADI-21030 (antibody, V domains shown) VH: EVQLVESGGGLVKPGGSLRLSCAASGFKFSTYYMSWIRQAPGKGLEWVSNISGGSSYSNHADSVKGRFTISRDNAKNSLYLEMNSLRAEDTAVYYCAREDLMGVSGLAYFEYWGQGILVTVSS VL: QPVLTQPPSVSGAPGQRVTISCTGRSSNIGAGYDVNWYKQLPGAVPKVLIYGNTNRPSGVPDRFSGSKSGNSASLAITGLQAEDEADYYCQSYDRNLGYVFGTGTKLTVL
Result :: 0.257
